Target or system: endogenous UTY (Homo sapiens, UniProt O14607)
Construct: endogenous UTY; endogenous in cells
Sequence (O14607 whole entry): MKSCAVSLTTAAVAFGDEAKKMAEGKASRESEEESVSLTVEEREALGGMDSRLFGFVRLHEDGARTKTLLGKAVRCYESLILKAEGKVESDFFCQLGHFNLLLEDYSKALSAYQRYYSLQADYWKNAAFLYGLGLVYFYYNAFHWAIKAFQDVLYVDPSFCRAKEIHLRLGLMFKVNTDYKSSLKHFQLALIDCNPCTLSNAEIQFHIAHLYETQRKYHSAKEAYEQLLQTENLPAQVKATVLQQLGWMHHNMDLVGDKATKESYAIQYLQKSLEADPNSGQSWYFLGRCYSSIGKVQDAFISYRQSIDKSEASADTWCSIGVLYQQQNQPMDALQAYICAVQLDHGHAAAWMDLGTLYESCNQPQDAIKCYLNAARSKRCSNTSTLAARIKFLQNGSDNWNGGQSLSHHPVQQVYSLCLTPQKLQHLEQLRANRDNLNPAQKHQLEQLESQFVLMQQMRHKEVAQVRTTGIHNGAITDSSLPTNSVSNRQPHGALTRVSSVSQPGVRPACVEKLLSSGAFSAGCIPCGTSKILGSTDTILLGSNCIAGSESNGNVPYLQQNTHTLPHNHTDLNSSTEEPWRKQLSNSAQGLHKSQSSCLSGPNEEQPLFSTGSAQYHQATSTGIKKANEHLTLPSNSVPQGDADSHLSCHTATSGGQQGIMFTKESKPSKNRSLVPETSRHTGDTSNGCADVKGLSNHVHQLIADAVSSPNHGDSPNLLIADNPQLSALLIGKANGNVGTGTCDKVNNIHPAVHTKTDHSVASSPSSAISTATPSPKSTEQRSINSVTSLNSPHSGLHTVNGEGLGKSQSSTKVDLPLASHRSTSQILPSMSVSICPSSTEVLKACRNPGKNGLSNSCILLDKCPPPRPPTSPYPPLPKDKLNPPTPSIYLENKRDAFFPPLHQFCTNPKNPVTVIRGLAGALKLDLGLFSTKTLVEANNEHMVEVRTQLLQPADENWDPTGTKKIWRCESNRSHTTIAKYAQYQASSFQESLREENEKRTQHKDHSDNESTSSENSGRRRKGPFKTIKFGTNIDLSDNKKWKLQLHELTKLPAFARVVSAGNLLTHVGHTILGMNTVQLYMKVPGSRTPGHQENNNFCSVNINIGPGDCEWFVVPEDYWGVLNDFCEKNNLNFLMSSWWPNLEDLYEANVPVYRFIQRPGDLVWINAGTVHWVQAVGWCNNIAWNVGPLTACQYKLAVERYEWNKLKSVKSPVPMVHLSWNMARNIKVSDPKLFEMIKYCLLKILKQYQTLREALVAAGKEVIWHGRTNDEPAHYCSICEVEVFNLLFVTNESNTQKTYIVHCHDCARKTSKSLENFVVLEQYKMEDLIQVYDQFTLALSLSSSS
Assay overview: Bead competition binding assay using immobilized example 1, concentration response curve (HEK293/THP-1 lysate mix)
Condition description: competition of binding to immobilized example 1, 0.156-40 µM, HEK293 lysate mixed 1:1 with THP-1 nuclear extract
Endpoint name: pIC50
Reminder that pIC50 means the negative base-10 logarithm of the concentration expressed in mol/L.

Reported pIC50 of O=C(O)CCNc1cc(N2CCc3ccccc3CC2)nc(-c2ccccn2)n1 [Reference example 2] : 5.85
